Mark yes (1) for reported logP of 4 or greater; mark no (0) for anything smaller.

compound=c1csc(-c2ccc(-c3cccs3)s2)c1 labelclass="yes (1)"
compound=O=CC=CC#CC#Cc1ccccc1 labelclass="no (0)"
compound=CC=CC#CC=C1C=CC(=O)O1 labelclass="no (0)"
compound=CC=CC#CC#Cc1ccccc1 labelclass="yes (1)"
compound="CC#CC#Cc1ccc(C#CC(Cl)COC(C)=O)s1 (stereo unspecified)" labelclass="yes (1)"
compound=CC#CC#CC#Cc1ccccc1 labelclass="yes (1)"
compound=C=CC#Cc1ccc(-c2cccs2)s1 labelclass="yes (1)"
compound=CC=CC#CC#CC=CC(=O)OC labelclass="no (0)"
compound=CC#CC#CC#CC=CC(=O)OC labelclass="no (0)"
compound=OCC=CC#CC#Cc1ccccc1 labelclass="no (0)"
